- Test system: Escherichia coli
- ASSAY_PROCEDURE: Bactericidal activity against ampicillin/chloramphenicol/ciprofloxacin/gentamicin/tetracycline-resistant Escherichia coli 401 by agar plating method
- Assay type: functional
PROPERTY_MEASURED: MBC (µg/mL)
// note: answer is a bare numeric in µg/mL

Request the reported MBC associated with CCCN1CCN(c2ccc3nc(-c4ccc5nc(-c6ccc(OC)c(OC)c6)[nH]c5c4)[nH]c3c2)CC1
8

Field entry: CCCN1CCN(c2ccc3nc(-c4ccc5nc(-c6ccc(OCC)cc6)[nH]c5c4)[nH]c3c2)CC1
2

Field entry: CCOc1ccc(-c2nc3ccc(-c4nc5ccc(N6CCN(CC)CC6)cc5[nH]4)cc3[nH]2)cc1
4
